procedure_text: Tumor uptake and tissue distribution in mice bearing SJSA-1 xenografts
Type: in vivo, athymic mice
stated_conditions: athymic, mouse, blood, iv, 166.5 kBq, total radioactivity
value_kind: tissue uptake at 2 h (%ID/g)
Enter your answer as a number in %ID/g; do not include the unit.

Task: Consider the compound CC(=O)N[C@@H](CCCCNC(=O)c1cccc(I)c1)C(=O)NCCCCCC(=O)N[C@H](C(=O)N[C@@H](CO)C(=O)N[C@@H](Cc1ccccc1)C(=O)N[C@]1(C)CCCCCCC=CCCC[C@@](C)(C(=O)N[C@@H](CCC(=O)O)C(=O)N[C@@H](CC(N)=O)C(=O)N[C@@H](Cc2ccccc2)C(N)=O)NC(=O)[C@H](CC(C)C)NC(=O)[C@H](CC(C)C)NC(=O)[C@H](C)NC(=O)[C@H](Cc2c[nH]c3ccccc23)NC(=O)[C@H](Cc2ccc(O)cc2)NC(=O)[C@H](CCC(=O)O)NC1=O)[C@@H](C)O [[^125I]SIB-VIP116] and give its recorded tissue uptake at 2 h.
Result: 6.84

====

procedure_text: Tumor uptake and tissue distribution in mice bearing SJSA-1 xenografts
Format: in vivo, athymic mice
stated_conditions: athymic, mouse, stomach, iv, 166.5 kBq, total radioactivity
value_kind: tissue uptake at 0.5 h (%ID/g)
Report the figure in %ID/g without appending any unit label.

Task: Entry CC(=O)N[C@@H](CCCCNC(=O)c1cccc(I)c1)C(=O)NCCCCCC(=O)N[C@H](C(=O)N[C@@H](CO)C(=O)N[C@@H](Cc1ccccc1)C(=O)N[C@]1(C)CCCCCCC=CCCC[C@@](C)(C(=O)N[C@@H](CCC(=O)O)C(=O)N[C@@H](CC(N)=O)C(=O)N[C@@H](Cc2ccccc2)C(N)=O)NC(=O)[C@H](CC(C)C)NC(=O)[C@H](CC(C)C)NC(=O)[C@H](C)NC(=O)[C@H](Cc2c[nH]c3ccccc23)NC(=O)[C@H](Cc2ccc(O)cc2)NC(=O)[C@H](CCC(=O)O)NC1=O)[C@@H](C)O [[^125I]SIB-VIP116] needs its tissue uptake at 0.5 h filled in; supply it.
Result: 0.34

====

procedure_text: Tumor uptake and tissue distribution in mice bearing SJSA-1 xenografts
Type: in vivo, athymic mice
stated_conditions: athymic, mouse, bone, iv, 166.5 kBq, total radioactivity
value_kind: tissue uptake at 2 h (%ID/g)
// return numeric value only (unit: %ID/g, not printed)

Task: In one line, give reported tissue uptake at 2 h of the entry CC(=O)N[C@@H](CCCCNC(=O)c1cccc(I)c1)C(=O)NCCCCCC(=O)N[C@H](C(=O)N[C@@H](CO)C(=O)N[C@@H](Cc1ccccc1)C(=O)N[C@]1(C)CCCCCCC=CCCC[C@@](C)(C(=O)N[C@@H](CCC(=O)O)C(=O)N[C@@H](CC(N)=O)C(=O)N[C@@H](Cc2ccccc2)C(N)=O)NC(=O)[C@H](CC(C)C)NC(=O)[C@H](CC(C)C)NC(=O)[C@H](C)NC(=O)[C@H](Cc2c[nH]c3ccccc23)NC(=O)[C@H](Cc2ccc(O)cc2)NC(=O)[C@H](CCC(=O)O)NC1=O)[C@@H](C)O [[^125I]SIB-VIP116] .
Result: 0.33

====

procedure_text: Tumor uptake and tissue distribution in mice bearing SJSA-1 xenografts
Type: in vivo, athymic mice
stated_conditions: athymic, mouse, blood, iv, 166.5 kBq, total radioactivity
value_kind: tissue uptake at 6 h (%ID/g)
Give the number; %ID/g is assumed, so skip it.

Task: Provide measured tissue uptake at 6 h value, entry: CC(=O)N[C@@H](CCCCNC(=O)c1cccc(I)c1)C(=O)NCCCCCC(=O)N[C@H](C(=O)N[C@@H](CO)C(=O)N[C@@H](Cc1ccccc1)C(=O)N[C@]1(C)CCCCCCC=CCCC[C@@](C)(C(=O)N[C@@H](CCC(=O)O)C(=O)N[C@@H](CC(N)=O)C(=O)N[C@@H](Cc2ccccc2)C(N)=O)NC(=O)[C@H](CC(C)C)NC(=O)[C@H](CC(C)C)NC(=O)[C@H](C)NC(=O)[C@H](Cc2c[nH]c3ccccc23)NC(=O)[C@H](Cc2ccc(O)cc2)NC(=O)[C@H](CCC(=O)O)NC1=O)[C@@H](C)O [[^125I]SIB-VIP116]
Result: 5.12

====

procedure_text: Tumor uptake and tissue distribution in mice bearing SJSA-1 xenografts
Assay type: in vivo, athymic mice
stated_conditions: athymic, mouse, brain, iv, 166.5 kBq, total radioactivity
value_kind: tissue uptake at 6 h
The answer should read as a number with its unit following.

Task: Tell me measured tissue uptake at 6 h for CC(=O)N[C@@H](CCCCNC(=O)c1cccc(I)c1)C(=O)NCCCCCC(=O)N[C@H](C(=O)N[C@@H](CO)C(=O)N[C@@H](Cc1ccccc1)C(=O)N[C@]1(C)CCCCCCC=CCCC[C@@](C)(C(=O)N[C@@H](CCC(=O)O)C(=O)N[C@@H](CC(N)=O)C(=O)N[C@@H](Cc2ccccc2)C(N)=O)NC(=O)[C@H](CC(C)C)NC(=O)[C@H](CC(C)C)NC(=O)[C@H](C)NC(=O)[C@H](Cc2c[nH]c3ccccc23)NC(=O)[C@H](Cc2ccc(O)cc2)NC(=O)[C@H](CCC(=O)O)NC1=O)[C@@H](C)O [[^125I]SIB-VIP116] please.
Result: 0.2 %ID/g

====

procedure_text: Tumor uptake and tissue distribution in mice bearing SJSA-1 xenografts
Type: in vivo, athymic mice
stated_conditions: athymic, mouse, small intestine, iv, 166.5 kBq, total radioactivity
value_kind: tissue uptake at 2 h (%ID/g)
Return type: number; implicit unit %ID/g.

Task: Please indicate tissue uptake at 2 h recorded for CC(=O)N[C@@H](CCCCNC(=O)c1cccc(I)c1)C(=O)NCCCCCC(=O)N[C@H](C(=O)N[C@@H](CO)C(=O)N[C@@H](Cc1ccccc1)C(=O)N[C@]1(C)CCCCCCC=CCCC[C@@](C)(C(=O)N[C@@H](CCC(=O)O)C(=O)N[C@@H](CC(N)=O)C(=O)N[C@@H](Cc2ccccc2)C(N)=O)NC(=O)[C@H](CC(C)C)NC(=O)[C@H](CC(C)C)NC(=O)[C@H](C)NC(=O)[C@H](Cc2c[nH]c3ccccc23)NC(=O)[C@H](Cc2ccc(O)cc2)NC(=O)[C@H](CCC(=O)O)NC1=O)[C@@H](C)O [[^125I]SIB-VIP116]
Result: 2.17

====

procedure_text: Tumor uptake and tissue distribution in mice bearing SJSA-1 xenografts
Format: in vivo, athymic mice
stated_conditions: athymic, mouse, lungs, iv, 166.5 kBq, total radioactivity
value_kind: tissue uptake at 2 h (%ID/g)
Reply numerically in %ID/g, unit not repeated.

Task: Consider the molecule CC(=O)N[C@@H](CCCCNC(=O)c1cccc(I)c1)C(=O)NCCCCCC(=O)N[C@H](C(=O)N[C@@H](CO)C(=O)N[C@@H](Cc1ccccc1)C(=O)N[C@]1(C)CCCCCCC=CCCC[C@@](C)(C(=O)N[C@@H](CCC(=O)O)C(=O)N[C@@H](CC(N)=O)C(=O)N[C@@H](Cc2ccccc2)C(N)=O)NC(=O)[C@H](CC(C)C)NC(=O)[C@H](CC(C)C)NC(=O)[C@H](C)NC(=O)[C@H](Cc2c[nH]c3ccccc23)NC(=O)[C@H](Cc2ccc(O)cc2)NC(=O)[C@H](CCC(=O)O)NC1=O)[C@@H](C)O [[^125I]SIB-VIP116] . State its measured tissue uptake at 2 h.
Result: 2.72

====

procedure_text: Tumor uptake and tissue distribution in mice bearing SJSA-1 xenografts
Format: in vivo, athymic mice
stated_conditions: athymic, mouse, large intestine, iv, 166.5 kBq, total radioactivity
value_kind: tissue uptake at 24 h (%ID/g)
Unit %ID/g implied. Number only.

Task: Fill in reported tissue uptake at 24 h for this entry: CC(=O)N[C@@H](CCCCNC(=O)c1cccc(I)c1)C(=O)NCCCCCC(=O)N[C@H](C(=O)N[C@@H](CO)C(=O)N[C@@H](Cc1ccccc1)C(=O)N[C@]1(C)CCCCCCC=CCCC[C@@](C)(C(=O)N[C@@H](CCC(=O)O)C(=O)N[C@@H](CC(N)=O)C(=O)N[C@@H](Cc2ccccc2)C(N)=O)NC(=O)[C@H](CC(C)C)NC(=O)[C@H](CC(C)C)NC(=O)[C@H](C)NC(=O)[C@H](Cc2c[nH]c3ccccc23)NC(=O)[C@H](Cc2ccc(O)cc2)NC(=O)[C@H](CCC(=O)O)NC1=O)[C@@H](C)O [[^125I]SIB-VIP116]
Result: 1.87

====

procedure_text: Tumor uptake and tissue distribution in mice bearing SJSA-1 xenografts
Assay type: in vivo, athymic mice
stated_conditions: athymic, mouse, skin, iv, 166.5 kBq, total radioactivity
value_kind: tissue uptake at 6 h (%ID/g)
A number alone suffices; assume %ID/g.

Task: Give tissue uptake at 6 h for the following molecule: CC(=O)N[C@@H](CCCCNC(=O)c1cccc(I)c1)C(=O)NCCCCCC(=O)N[C@H](C(=O)N[C@@H](CO)C(=O)N[C@@H](Cc1ccccc1)C(=O)N[C@]1(C)CCCCCCC=CCCC[C@@](C)(C(=O)N[C@@H](CCC(=O)O)C(=O)N[C@@H](CC(N)=O)C(=O)N[C@@H](Cc2ccccc2)C(N)=O)NC(=O)[C@H](CC(C)C)NC(=O)[C@H](CC(C)C)NC(=O)[C@H](C)NC(=O)[C@H](Cc2c[nH]c3ccccc23)NC(=O)[C@H](Cc2ccc(O)cc2)NC(=O)[C@H](CCC(=O)O)NC1=O)[C@@H](C)O [[^125I]SIB-VIP116]
Result: 1.22
